study_target: human full-length VWF (human, UniProt P04275 764-2813)
assay_remarks: SPR, Biacore T200, antibody captured on Protein A, full-length VWF as analyte, single-cycle kinetics;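 also: running buffer HEPES pH 7.4 with 300 mM NaCl, 3 mM EDTA and 0.05% P20, about 350 RU antibody captured, in-line reference flow cell subtracted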
Listed here: items and their measured Kd.
Note: unit pM is implicit; provide only the numeric part.

binder	units_text	Kd
3-H9_H0_L0 (antibody, human IgG1, kappa, V domains shown, humanised, human IgG1 kappa) VH: QVQLVESGGGVVQPGRSLRLSCAASGFTFSNYDMSWVRQAPGKGLEWVASIHAIGITYYANWAEGRFTISRDNSKNTLYLQMNSLRAEDTAVYYCARGLVDLNMWGQGTLVTVSS VL: DIQMTQSPSSLSASVGDRVTITCQSSQSVYSNNLLSWYQQKPGKAPKLLIYDASTLESGVPSRFSGSGSGTDFTLTISSLQPEDFATYYCQGSYYSSGWYNTFGGGTKVEIKT	pM	1.05

# return recorded Kd for entry 1-G5_H0_VL-par rep (antibody, human IgG1, kappa, V domains shown, also called 1-G5_H0 (hIgG1)) VH: QVQLVESGGGVVQPGRSLRLSCAASGFTFSSYDMTWVRQAPGKGLEWVASIHATGITFYANWAKGRFTISRDNSKNTLYLQMNSLRAEDTAVYYCARGLVDLNMWGQGTLVTVSS VL: DPVMTQTASSVSAAVGGTVTINCQASQSVYNNNYLSWYQQKPGQPPKLLIYDASTLASGVPSRFSGNGSGTQFTLTISGVQCDDAATYYCQGSYYSGGWDTAFGGGTKVVVKT
8.52

# return recorded Kd for entry 3-H9_H2_L0 (antibody, human IgG1, kappa, V domains shown, humanised, human IgG1 kappa) VH: QQLVESGGGVVQPGRSLRLSCAASGFSLSNYDMSWVRQAPGKGLEWIGSIHAIGITYYANWAEGRFTISRDKNTVYLQMNSLRAEDTATYFCARGLVDLNMWGQGTLVTVSS VL: DIQMTQSPSSLSASVGDRVTITCQSSQSVYSNNLLSWYQQKPGKAPKLLIYDASTLESGVPSRFSGSGSGTDFTLTISSLQPEDFATYYCQGSYYSSGWYNTFGGGTKVEIKT
11.2

# return recorded Kd for entry 3-H9_VH-par_L0 (antibody, human IgG1, kappa, V domains shown, also called 3-H9_L0 (hIgG1K)) VH: SQSLEESGGRLVTPGTPLTLTCSVSGFSLSNYDMSWVRQAPGKGLEWIGSIHAIGITYYANWAEGRFTISKTSTTVDLKMTSLTTEDTATYFCARGLVDLNMWGPGTLVTVSS VL: DIQMTQSPSSLSASVGDRVTITCQSSQSVYSNNLLSWYQQKPGKAPKLLIYDASTLESGVPSRFSGSGSGTDFTLTISSLQPEDFATYYCQGSYYSSGWYNTFGGGTKVEIKT
111

# return recorded Kd for entry 3-H9_H0_VL-par (antibody, human IgG1, kappa, V domains shown, also called 3-H9_H0 (hIgG1)) VH: QVQLVESGGGVVQPGRSLRLSCAASGFTFSNYDMSWVRQAPGKGLEWVASIHAIGITYYANWAEGRFTISRDNSKNTLYLQMNSLRAEDTAVYYCARGLVDLNMWGQGTLVTVSS VL: AIKMTQTPSSVSVAVGGTVTINCQSSQSVYSNNLLSWYQQKPGQPPKLLIYDASTLESGVPSRFKGSGSGTQFTLTISGVQCEDAATYYCQGSYYSSGWYNTFGGGTEVVVET
4.09
